Molecular target: GAK kinase domain (12-347) (Homo sapiens)
Assay: TR-FRET ligand binding displacement assay, GAK
Conditions: relative to 1
endpoint: fold drop in GAK potency (fold)

[1] COc1ccc(Nc2ccnc3ccc(C(F)(F)F)cc23)cc1
[2] COc1ccc(Nc2ccnc3ccc(C(F)(F)F)cc23)cc1OC
Request: Given the listed records, identify the one among 1 and 2 with higher fold drop in GAK potency. Provide the label of your selected option as the answer.
Response: 1
(1: 100 fold, 2: 10 fold)

====

Target: GAK kinase domain (12-347) (Homo sapiens, UniProt O14976)
Sequence (O14976 12-347): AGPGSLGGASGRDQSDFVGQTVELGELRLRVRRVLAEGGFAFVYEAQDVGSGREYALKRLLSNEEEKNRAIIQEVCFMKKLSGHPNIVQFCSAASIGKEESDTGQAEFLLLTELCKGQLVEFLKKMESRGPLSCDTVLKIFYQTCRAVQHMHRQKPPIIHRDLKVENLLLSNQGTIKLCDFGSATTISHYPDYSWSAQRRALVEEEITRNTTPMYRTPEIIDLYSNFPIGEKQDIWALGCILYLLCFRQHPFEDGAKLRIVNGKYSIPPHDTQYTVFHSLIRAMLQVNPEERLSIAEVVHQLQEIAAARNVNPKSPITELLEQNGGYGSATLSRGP
endpoint: Ki (nM)

Some compounds with recorded Ki:
COc1ccc(Nc2ccnc3ccc(C(F)(F)F)cc23)cc1OC [Compound 5] :: 58
COc1cc(Nc2ccnc3ccc(C(C)(C)C)cc23)cc(OC)c1OC [Compound 45] :: 8.1
COc1cc(Nc2ccnc3cc(F)cc(F)c23)cc(OC)c1OC [Compound 44] :: 140

[P] C#Cc1cccc(Nc2ccnc3cc(OC)c(OC)cc23)c1 [Compound 55]
[Q] COc1ccc(Nc2ccnc3ccc(C(F)(F)F)cc23)cc1 [Compound 8]
Request: Given the listed records, identify the one among P and Q with higher Ki. Provide the label of your selected option as the answer.
Response: Q

[a] COc1cc(Nc2ccnc3ccc(C(F)(F)F)cc23)cc(OC)c1 [Compound 4]
[b] COc1ccc(Nc2ccnc3ccc(C(F)(F)F)cc23)c(OC)c1 [Compound 6]
Request: For the pair a and b , which entry has the numerically smaller recorded Ki? Provide the label of your selected option as the answer.
Response: a
(a: 54 nM, b: 860 nM)

[A] COc1ccc(OC)c(Nc2ccnc3ccc(C(F)(F)F)cc23)c1 [Compound 7]
[B] COc1cc2nccc(Nc3cccc(C(C)=O)c3)c2cc1OC [Compound 56]
Request: For the pair A and B , which entry has the numerically smaller recorded Ki? Provide the label of your selected option as the answer.
Response: A
(A: 140 nM, B: 400 nM)

====

Target: STK16 kinase domain (13-305) (Homo sapiens, UniProt O75716)
Sequence (O75716 13-305): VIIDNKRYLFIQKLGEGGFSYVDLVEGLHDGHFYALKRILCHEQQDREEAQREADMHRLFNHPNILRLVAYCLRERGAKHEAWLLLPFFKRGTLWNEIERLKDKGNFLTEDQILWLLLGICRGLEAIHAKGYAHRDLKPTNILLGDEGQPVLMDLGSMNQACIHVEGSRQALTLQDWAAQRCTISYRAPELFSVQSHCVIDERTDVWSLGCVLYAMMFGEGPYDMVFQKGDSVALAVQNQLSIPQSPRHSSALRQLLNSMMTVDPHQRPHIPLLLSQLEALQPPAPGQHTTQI
Assay: TR-FRET ligand binding displacement assay, STK16
Settings: read-out: Binding displacement assay Ki STK16; TR-FRET, 16-point dose response
endpoint: Ki (µM)
Form entry: value (µM) — number only.

Request: Can you share its Ki? I mean this molecule: COc1cc(Nc2ncnc3ccc(C(F)(F)F)cc23)cc(OC)c1
Response: 8

====

Biological target: GAK kinase domain (12-347) (Homo sapiens, UniProt O14976)
Assay: TR-FRET ligand binding displacement assay, GAK
Settings: selectivity against the nearest NAK family member
endpoint: NAK selectivity (ratio of GAK Ki and Ki of nearest NAK family member)

[P] COc1ccc2c(Nc3cc(OC)c(OC)c(OC)c3)ccnc2c1
[Q] COc1ccc(Nc2ncnc3ccc(C(F)(F)F)cc23)cc1
Request: Given the listed records, identify the one among P and Q with higher NAK selectivity (ratio of GAK Ki and Ki of nearest NAK family member). Provide the label of your selected option as the answer.
Response: P

[1] COc1ccc(Nc2ccnc3ccc(C(F)(F)F)cc23)cc1OC
[2] COc1cc(Nc2ccnc3ccc(C(F)(F)F)cc23)cc(OC)c1
Request: Given the listed records, identify the one among 1 and 2 with higher NAK selectivity (ratio of GAK Ki and Ki of nearest NAK family member). Provide the label of your selected option as the answer.
Response: 2

[1] COc1cc(Nc2ncnc3ccc(C(F)(F)F)cc23)cc(OC)c1
[2] COc1cc(Nc2ccnc3cc(C#N)ccc23)cc(OC)c1OC
Request: For the pair 1 and 2 , which entry has the numerically smaller recorded NAK selectivity (ratio of GAK Ki and Ki of nearest NAK family member)? Provide the label of your selected option as the answer.
Response: 1
(1: 26, 2: 9300)

[A] COc1cc(Nc2ccnc3cc(C(F)(F)F)ccc23)cc(OC)c1OC
[B] COc1ccc(Nc2ccnc3ccc(C(F)(F)F)cc23)c(OC)c1
Request: For the pair A and B , which entry has the numerically smaller recorded NAK selectivity (ratio of GAK Ki and Ki of nearest NAK family member)? Provide the label of your selected option as the answer.
Response: B
